Attribution: patent US20240116985A1

Would you kindly list IC50 for each of these molecules?
Target: full-length beta-Catenin (Uniprot ID P35222) (Homo sapiens, UniProt P35222)
Construct: 10 nM full-length beta-Catenin (Uniprot ID P35222)
Sequence (P35222 1-781): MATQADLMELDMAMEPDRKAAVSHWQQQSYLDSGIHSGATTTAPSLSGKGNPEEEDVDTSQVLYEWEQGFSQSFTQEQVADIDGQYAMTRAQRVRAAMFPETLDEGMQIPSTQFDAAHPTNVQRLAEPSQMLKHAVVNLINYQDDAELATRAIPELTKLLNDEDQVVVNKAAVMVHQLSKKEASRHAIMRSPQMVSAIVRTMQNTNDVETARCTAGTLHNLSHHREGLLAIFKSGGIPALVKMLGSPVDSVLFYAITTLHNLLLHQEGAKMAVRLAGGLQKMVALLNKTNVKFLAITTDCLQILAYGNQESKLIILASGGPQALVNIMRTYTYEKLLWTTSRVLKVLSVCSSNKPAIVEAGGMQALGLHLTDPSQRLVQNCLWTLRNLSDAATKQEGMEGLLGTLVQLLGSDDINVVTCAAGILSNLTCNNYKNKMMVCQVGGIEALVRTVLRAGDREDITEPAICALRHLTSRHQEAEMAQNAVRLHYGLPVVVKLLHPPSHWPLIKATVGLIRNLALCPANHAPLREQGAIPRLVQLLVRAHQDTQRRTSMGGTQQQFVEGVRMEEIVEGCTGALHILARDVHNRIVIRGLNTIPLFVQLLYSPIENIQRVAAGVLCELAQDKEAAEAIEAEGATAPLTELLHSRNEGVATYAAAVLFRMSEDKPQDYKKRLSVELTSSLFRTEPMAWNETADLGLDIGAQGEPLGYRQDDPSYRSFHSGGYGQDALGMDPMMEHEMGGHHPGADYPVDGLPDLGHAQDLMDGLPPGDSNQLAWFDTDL
Experiment: Fluorescence polarization IC50 (beta-catenin / 5FAM-TCF4 10-53 competition)
Assay type: binding
Conditions: read-out: beta-Catenin FP IC50
Provide only the numeric value, understood in nM.

Task item: Provide only the value of recorded IC50 for CC(=O)N1CCC[C@]12CC=CCCCC1(CCCC=CCCCCCC[C@@](C)(C(=O)N[C@@H](Cc3ccccc3Cl)C(=O)N[C@@H](Cc3csc4ccccc34)C(=O)N[C@@H](CCC(N)=O)C(N)=O)NC(=O)[C@H]([C@@H](C)O)NC(=O)[C@H](Cc3ccccc3)NC(=O)[C@H](C)NC(=O)[C@H](C)NC(=O)[C@H](CC(=O)O)NC(=O)[C@H](CC(=O)O)NC1=O)NC(=O)[C@H](CC(C)(C)C)NC(=O)[C@H](CC(=O)O)NC2=O (stereo partly drawn) [I-1086]
Reply: 12

Task item: Provide only the value of recorded IC50 for COc1ccccc1C[C@H](NC(=O)[C@]12CCN(C1)C(=O)OCCCC=CCCCC1(CCCC=CC[C@]3(CCCN3C(C)=O)C(=O)N[C@@H](CC(=O)O)C(=O)N[C@@H](CC(C)(C)C)C(=O)N1)C(=O)N[C@@H](CC(=O)O)C(=O)N[C@@H](CC(=O)O)C(=O)N[C@@H](C)C(=O)N[C@@H](C)C(=O)N[C@@H](Cc1ccccc1)C(=O)N[C@@H](CC(N)=O)C(=O)N2)C(=O)N[C@@H](Cc1csc2ccccc12)C(=O)N[C@@H](Cc1c[nH]cn1)C(N)=O (stereo partly drawn)
Reply: 5

Task item: Provide only the value of recorded IC50 for CC(=O)N1CCC[C@]12CC=CCCCC1(CCCC=CCCCOC(=O)N3CC[C@@](C(=O)N[C@@H](Cc4ccccc4Cl)C(=O)N[C@@H](Cc4csc5ccccc45)C(=O)N[C@@H](CO)C(N)=O)(C3)NC(=O)[C@H](CC(C)C)NC(=O)[C@H](Cc3ccccc3)NC(=O)[C@H](C)NC(=O)[C@H](C)NC(=O)[C@H](CCC(=O)O)NC(=O)[C@H](CC(=O)O)NC1=O)NC(=O)[C@H](CC(C)(C)C)NC(=O)[C@H](CC(=O)O)NC2=O (stereo partly drawn) [I-1067]
Reply: 517

Task item: Provide only the value of recorded IC50 for CC(=O)N1CCC[C@]12CC=CCCCC1(CCCC=CCCCOC(=O)N3CC[C@@](C(=O)N[C@@H](Cc4ccsc4)C(=O)N[C@@H](Cc4csc5ccccc45)C(=O)N[C@@H](CCC(N)=O)C(N)=O)(C3)NC(=O)[C@H]([C@@H](C)O)NC(=O)[C@H](Cc3ccccc3)NC(=O)[C@H](C)NC(=O)[C@H](C)NC(=O)[C@H](Cc3cccc(C(=O)O)c3)NC(=O)[C@H](CC(=O)O)NC1=O)NC(=O)[C@H](CC(C)(C)C)NC(=O)[C@H](CC(=O)O)NC2=O (stereo partly drawn) [I-981]
Reply: 374

Task item: Provide only the value of recorded IC50 for CC(=O)N1CCC[C@]12CC=CCCCC1(CCCC=CCCCOC(=O)N3CC[C@@](C(=O)N[C@@H](Cc4ccsc4)C(=O)N[C@@H](Cc4csc5ccccc45)C(=O)N[C@@H](CO)C(N)=O)(C3)NC(=O)[C@H](CC(N)=O)NC(=O)[C@H](Cc3ccccc3)NC(=O)[C@H](C)NC(=O)[C@H](C)NC(=O)[C@H](CN(CC(=O)O)CC(F)(F)F)NC(=O)[C@H](CC(=O)O)NC1=O)NC(=O)[C@H](CC(C)(C)C)NC(=O)[C@H](CC(=O)O)NC2=O (stereo partly drawn) [I-941]
Reply: 2110

Task item: Provide only the value of recorded IC50 for CC(=O)N1CCC[C@]12CC=CCCCC1(CCCC=CCCCCCC[C@@](C)(C(=O)N[C@@H](Cc3ccccc3Cl)C(=O)N[C@@H](Cc3csc4ccccc34)C(=O)N[C@@H](CCC(N)=O)C(N)=O)NC(=O)[C@H](CC(N)=O)NC(=O)[C@H](Cc3ccccc3)NC(=O)[C@H](C)NC(=O)[C@H](C)NC(=O)[C@H](CN(CC(=O)O)CC(F)(F)F)NC(=O)[C@H](CC(=O)O)NC1=O)NC(=O)[C@H](CC(C)(C)C)NC(=O)[C@H](CC(=O)O)NC2=O (stereo partly drawn)
Reply: 23

Task item: Provide only the value of recorded IC50 for CC(=O)N1CCC[C@]12CC=CCCCC1(CCCC=CCCCOC(=O)N3CC[C@@](C(=O)N[C@@H](Cc4ccsc4)C(=O)N[C@@H](Cc4csc5ccccc45)C(=O)N[C@@H](CCC(N)=O)C(=O)N[C@@H](CCCCNC(=O)c4ccc5ccccc5c4)C(N)=O)(C3)NC(=O)[C@H](CC(N)=O)NC(=O)[C@H](Cc3ccccc3)NC(=O)[C@H](C)NC(=O)[C@H](C)NC(=O)[C@H](CC(=O)O)NC(=O)[C@H](CC(=O)O)NC1=O)NC(=O)[C@H](CC(C)(C)C)NC(=O)[C@H](CC(=O)O)NC2=O (stereo partly drawn)
Reply: 28

Task item: Provide only the value of recorded IC50 for CC(=O)N1CCC[C@]12CC=CCCCC1(CCCC=CCCCOC(=O)N3CC[C@@](C(=O)N[C@@H](Cc4ccsc4)C(=O)N[C@@H](Cc4csc5ccccc45)C(=O)N[C@@H](Cc4c[nH]cn4)C(N)=O)(C3)NC(=O)[C@H](CC(N)=O)NC(=O)[C@H](Cc3ccccc3)NC(=O)[C@H](C)NC(=O)[C@H](C)NC(=O)[C@H](CCC(N)=O)NC(=O)[C@H](CC(=O)O)NC1=O)NC(=O)[C@H](CC(C)(C)C)NC(=O)[C@H](CC(=O)O)NC2=O (stereo partly drawn)
Reply: 7

Task item: Provide only the value of recorded IC50 for CC(=O)N1CCC[C@]12CC=CCCCC1(CCCC=CCCCOC(=O)N3CC[C@@](C(=O)N[C@@H](Cc4ccccc4Cl)C(=O)N[C@@H](Cc4csc5ccccc45)C(=O)N[C@@H](C(N)=O)[C@H](C)O)(C3)NC(=O)[C@H](CC(C)C)NC(=O)[C@H](Cc3ccccc3)NC(=O)[C@H](C)NC(=O)[C@H](C)NC(=O)[C@H](CC(=O)O)NC(=O)[C@H](CC(=O)O)NC1=O)NC(=O)[C@H](CC(C)(C)C)NC(=O)[C@H](CC(=O)O)NC2=O (stereo partly drawn)
Reply: 21
